Attribution: PubChem BioAssay (NCI)

tested on: SW-620 colon; experiment: NCI tumour cell line growth inhibition, 48 h
OBSERVED_PROPERTY: TGI

Recorded results for 2 molecules are shown here.
MOLECULE	RESULT
NC(CCl)=NCC12CC3CC(CC(C3)C1)C2	4.37 µM
Cc1ccc(F)c2[nH]c(-c3ccccc3)cc(=O)c12	> 100 µM

*Q* Provide only the value of recorded TGI for CCCC(=O)Oc1c2ccsc2c(OC(=O)CCC)c2ccsc12
*A* 8.9 µM

*Q* // fetch TGI given entry OCC#Cc1ccccc1C#Cc1ccc(C#Cc2ccccc2C#CCO)cc1
*A* > 100 µM

*Q* Please report TGI for the following molecule: O=C(CSc1nc2ccc(I)cc2c(=O)n1Cc1ccccc1)NNC(=S)Nc1ccccc1
*A* > 100 µM

---

test system: DU-145 prostate; assay: NCI tumour cell line growth inhibition, 48 h
GI50 reference

Guide cases for GI50, answers given:
SMILES_REPR	GI50
CC1(C)N=C(N)N=C(N)N1c1cccc(CCCCc2ccc(Cl)c(S(=O)(=O)F)c2)c1	4.09 µM
[Mn+3].[O-][Cl+3]([O-])([O-])O.[O-]c1ccccc1C=NCCN1CC1.[O-]c1ccccc1C=NCCN1CC1	22.7 µM
COc1ccc(NC(=O)c2ccc(C(F)(F)F)nc2Nc2ccc(Cl)cc2C)cc1Cl	3.75 µM

*Q* Please report GI50 for the following compound: C#Cc1cccc(Nc2nc(C)nc3cc(NC(=O)CCl)ccc23)c1
*A* 3.67 µM

*Q* Note GI50 for the compound shown: O=C1NN(C(=O)c2ccccc2)C(c2ccc(Cl)c(Cl)c2)=C/C1=C\c1ccccc1[N+](=O)[O-]
*A* 2.78 µM

*Q* Give the value of GI50 reported for the following: O=c1cc(-c2ccccc2)oc2c(O)c(O)ccc12
*A* 8.66 µM

*Q* Read the entry C/C(COc1ccc2oc(-c3ccccc3)cc(=O)c2c1)=N\O and write its reported GI50.
*A* 48.5 µM

*Q* Return GI50 for the following compound: CCCCCCCCCCCCCCCCCC1=NC(C)(C)CN1C(C)(C)CO
*A* 1.61 µM

*Q* Give a short answer stating reported GI50 for N#Cc1c(N)c(C(=O)c2ccc3c(c2)OCCO3)n2c1CCCC2 .
*A* 4.45 µM

*Q* Tell me its GI50 given Cn1cc(-c2ncnc3ccc(-c4cnc(Cl)c(NS(C)(=O)=O)c4)cc23)c2ccccc21 as the entry.
*A* 1.05 µM

---

tested on: HCT-15 colon; test: NCI tumour cell line growth inhibition, 48 h
Quick list: TGI per entry.

Worked examples, 2 compounds total:
COMPOUND	TGI
O=C([O-])c1ccccc1Nc1ccccc1C(=O)[O-].[OH3+].[Zn+2]	> 100 µM
COC(=O)[C@@H](C)C[C@H](Cc1ccc(F)cc1)NC(=O)c1csc([C@@H](C[C@H](C(C)C)N(C)C(=O)[C@@H](NC(=O)[C@H]2CCCCN2C)C2CC2)OC(C)=O)n1	> 25 µM

*Q* Name the recorded TGI of the compound listed here: COC1CC(O[C@H]2CC[C@@]3(C)C(=CCC4(O)C3CCC35C(=O)OC6(C)O[C@@]43CCC65)C2)OC(C)C1O (some centres undefined)
*A* > 100 µM

*Q* Read off the recorded TGI for CC1(C)CC[C@]2(C)[C@@H](O)C[C@]3(C)C(=CC[C@@H]4[C@@]5(C)CC[C@H](O)C(C)(C)[C@@H]5CC[C@]43C)[C@@H]2C1
*A* > 100 µM

---

system: MDA-MB-435; assay: NCI tumour cell line growth inhibition, 48 h
OBSERVED_PROPERTY: TGI

*Q* Note down TGI recorded for C=C(C)[C@@]12C[C@H](OC(=O)[C@H](O)[C@@H](NC(=O)c3ccccc3)c3ccccc3)C(C)=C1[C@@H](OC(C)=O)C(=O)[C@@]1(C)C([C@@H]2OC(=O)c2cc(F)cc(F)c2)C2(OC(C)=O)CO[C@@H]2C[C@@H]1O (some centres undefined)
*A* 0.0818 µM

---

system: DMS 114 small cell lung; assay: NCI tumour cell line growth inhibition, 48 h
OBSERVED_PROPERTY: TGI (µM)
Answer in µM, number only, no unit symbol.

A selection of reference data follows.
SMILES_REPR	OBSERVED_PROPERTY	NUMERIC_VALUE
O=C(/C=C/c1ccc(-c2ccccc2)cc1)c1ccccc1	TGI	31.8
O=[N+]([O-])c1cc(I)cc(/C=N/NS(=O)(=O)c2ccc(F)cc2)c1O	TGI	52.2

*Q* Complete the entry with TGI for CSc1ccc(Cc2cc(C(C)(C)C)cc(C(C)(C)C)c2O)cc1
*A* 25.7

*Q* Indicate its recorded TGI; the molecule in question is N/C(=C\c1ccc(/C=C(\NC(=O)c2ccccc2)c2nc3c([nH]2)C(=O)c2ccccc2C3=O)cc1)c1nc2c([nH]1)C(=O)c1ccccc1C2=O
*A* 22.9

*Q* For the molecule N#C[S-].[Ce+3].c1ccc(-c2ccccn2)nc1.c1ccc(-c2ccccn2)nc1.c1ccc(-c2ccccn2)nc1 , give its reported TGI.
*A* 78.8

---

# key: entry, value: GI50
test system: OVCAR-5 ovarian; test: NCI tumour cell line growth inhibition, 48 h

Example cases with answers are listed next.
SMILES_REPR	GI50
C=C[C@@H]1CCC/C=C/[C@@H]2C[C@H](O)C[C@H]2[C@H](O)/C=C/C(=O)O1	664 nM
CC1(C)CC[C@]2(C(=O)NCCNCCN)CC[C@]3(C)C(=CC[C@@H]4[C@@]5(C)CCC(=O)C(C)(C)[C@@H]5CC[C@]43C)[C@@H]2C1	1980 nM
C/C(COc1ccc2oc(-c3ccccc3)cc(=O)c2c1)=N\O	22000 nM

*Q* Recall the reported GI50 of COc1ccc(-c2oc3ncnc(N)c3c2-c2ccc(NC(=O)Nc3cc(C(F)(F)F)ccc3F)cc2)cc1 when tested on OVCAR-5 ovarian.
*A* 3150 nM

---

system: NCI-H23 lung; assay: NCI tumour cell line growth inhibition, 48 h
OBSERVED_PROPERTY: TGI

Below, each entry is followed by its recorded TGI result.
COMPOUND	TGI
CCCCCCCCCCNC(=S)OC	> 100 µM
COP(=O)(/C=C/C(NC(=O)C(Cl)(Cl)Cl)c1ccccc1)OC (configuration not stated)	> 100 µM
COc1ccccc1N1C(=O)CSC1c1cccc(Oc2ccccc2)c1 (configuration not stated)	52.9 µM
NS(=O)(=O)c1ccc(N=Nc2ccc(O)cc2)cc1	> 100 µM
CCC(CO)Nc1nc(NCc2ccccc2)c2n[nH]c(C(C)C)c2n1 (configuration not stated)	31.2 µM
COC1CC(O[C@H]2CC[C@@]3(C)C(=CCC4(O)C3CCC35C(=O)OC6(C)O[C@@]43CCC65)C2)OC(C)C1O (some centres not stated)	> 100 µM

Here's the next entry for you.
*Q* Given CC(=O)OC(OC(C)=O)c1c2ccccc2cc2ccccc12 , respond with its TGI.
*A* > 100 µM

---

tested on: HT29 colon; test: NCI tumour cell line growth inhibition, 48 h
Give yes (1) when the value for TGI is at least 20 µM. Give no (0) when it is less.

Example entries and their recorded answers appear below.
COMPOUND	TESTED_SYSTEM	CATEGORY
C/C(=N\NC(=O)c1ccccc1O)c1c(O)cc(C)oc1=O	HT29 colon	yes (1)
CC(=O)O[C@H]1CC[C@@]2(C)C(=CC[C@H]3C(CC#N)[C@@](C)(C#N)CCC32)C1 (stereo partly specified)	HT29 colon	yes (1)
O=C(NC1CCCCC1)NC12CC3CC(CC(F)(C3)C1)C2	HT29 colon	yes (1)
Cc1cc(-c2nc3ccc(F)cc3s2)ccc1NC(=O)C(N)CCCCN (stereo unspecified)	HT29 colon	no (0)
CC1=NC(C)=C(/C(C)=N/NC(=O)c2ccccc2O)C(C)/C1=C(/C)NNC(=O)c1ccccc1O (stereo unspecified)	HT29 colon	yes (1)

*Q* Say whether COc1ccc(Cc2ccc3[nH]c(=O)cc(C)c3c2)cc1S(=O)(=O)O shows TGI of 20 µM or more.
*A* yes (1)

*Q* Please indicate if the recorded TGI for COc1ccc2nc(N/N=C/c3ccc(C)s3)cc(C)c2c1 meets or exceeds 20 µM.
*A* yes (1)

---

Listing of entries alongside the reported GI50.
tested on: HOP-92 NSCLC; assay: NCI tumour cell line growth inhibition, 48 h

Known GI50 results, listed for orientation:
COMPOUND	RESULT
CCCCNC(=O)Oc1ccc(/C(=C(\C)c2ccc(OC)cc2)c2ccc(OCCN3CCCCC3)cc2)cc1	1570 nM
COc1ccc(-c2c(NC(=O)Nc3ccc(Cl)c(C(F)(F)F)c3)cnn2-c2ccc(S(N)(=O)=O)cc2)cc1	2020 nM
Cc1cc2[nH]c(=O)c3c4ncccc4cn3c2cc1C	2940 nM
COc1nc2c(c(=O)n1C)CN(c1ccccc1)C(=O)CN2C	852 nM
C/C(COc1ccc2oc(-c3ccccc3)cc(=O)c2c1)=N\O	37400 nM

*Q* Provide measured GI50 on HOP-92 NSCLC for FC(F)(F)c1cccc(Oc2ccc(Nc3ncnc4ccc(OCCCN5CCOCC5)cc34)cc2Cl)c1 please.
*A* 1760 nM

*Q* Fill in GI50 for O=C1NN(C(=O)c2ccccc2)C(c2ccc(Cl)c(Cl)c2)=C/C1=C\c1ccccc1[N+](=O)[O-] tested with HOP-92 NSCLC.
*A* 1430 nM

*Q* Name the recorded GI50 of O=C(N/N=C\c1ccc(N(CCCl)CCCl)cc1)c1cccnc1 , assay system HOP-92 NSCLC.
*A* 30600 nM

*Q* Answer with GI50 of C[N+]1(CCNP(=S)(NCC[N+]2(C)Cc3c(ccc4c3OCO4)C3C2c2cc4c(cc2C[C@@H]3O)OCO4)NCC[N+]2(C)Cc3c(ccc4c3OCO4)C3C2c2cc4c(cc2C[C@@H]3O)OCO4)Cc2c(ccc3c2OCO3)C2C1c1cc3c(cc1C[C@H]2O)OCO3 (stereo not given in full) measured for HOP-92 NSCLC.
*A* 3430 nM

*Q* Tell me its GI50 on HOP-92 NSCLC: Cc1cc(C)c([I+]c2c(C)cc(C)cc2C)c(C)c1
*A* 267 nM

*Q* Jot down GI50 (HOP-92 NSCLC) of N#Cc1ccc2[nH]cc(Cc3c[nH]c4ccc(C#N)cc34)c2c1 .
*A* 8520 nM

*Q* Quote HOP-92 NSCLC GI50 for entry C#Cc1cccc(Nc2nc(C)nc3cc(NC(=O)CCl)ccc23)c1 .
*A* 670 nM

*Q* // fetch GI50; item: [Mn+3].[O-][Cl+3]([O-])([O-])O.[O-]c1ccccc1C=NCCN1CC1.[O-]c1ccccc1C=NCCN1CC1 ; system: HOP-92 NSCLC
*A* 94800 nM

*Q* Determine reported GI50 for COc1cccc(C2SC(C)C(=O)N2NC(=O)C(O)c2ccccc2)c1 (stereo not given) ; test system: HOP-92 NSCLC.
*A* > 100000 nM

*Q* For HOP-92 NSCLC, give the measured GI50 of the entry CCOc1ccc(Nc2ccnc3cc(Cl)ccc23)cc1
*A* 16100 nM
